Test target: Torsin-1A (Homo sapiens)
Measurement description: small-molecule binders of mutant TOR1A in lysate, primary screen, cell lysate, small-molecule microarray, COS7 lysate, 635/667 nm fluorescence (AID 1150);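 further: score pools 667 nm emission and signal to noise measuring lysate protein binding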
Settings: COS7 hTOR1A mutant lysate, 635 nm fluorescence, higher = more signal
Property label: composite z-score
Lab note: jot down the number only; don't add units.

Let me check: O=C1O[C@@H](c2ccccc2)[C@@H](c2ccccc2)N2[C@@H](c3ccc(O)cc3)[C@]3(C(=O)Nc4ccc(C#CC5=CCCCC5)cc43)[C@@H](C(=O)N3CCN(c4ncccn4)CC3)[C@H]12 , system Torsin-1A (Homo sapiens), measured composite z-score is 0.836

Let me check: COCCCNC(=O)[C@@]1(Sc2ccc(C)cc2)CC(=O)N(Cc2cc(C(F)(F)F)cc(C(F)(F)F)c2)[C@@H]1c1ccc(CO)cc1 , system Torsin-1A (Homo sapiens), measured composite z-score is 0.389

Let me check: CCOc1cc(C(O)C2C=CC3C(=O)N(C)C(=O)C3N2N2CCCCC2)ccc1O (stereo unspecified) , system Torsin-1A (Homo sapiens), measured composite z-score is 0.221

Let me check: COc1ccc([Si](C)(C)[C@H]2[C@H](CC(=O)N3Cc4ccccc4C[C@H]3CO)O[C@@]3(C(=O)N(Cc4cccc(N5CCCCC5=O)c4)c4ccccc43)[C@@H]2C)cc1 , system Torsin-1A (Homo sapiens), measured composite z-score is 0.431

Let me check: O=C(CS)NCCCCCCNC(=O)[C@H]1C[C@H]2C(=O)N[C@@H](Cc3ccccc3)C(=O)N2[C@H]1c1cccc(OCCO)c1 , system Torsin-1A (Homo sapiens), measured composite z-score is 1.06

Let me check: Cc1ccc(S[C@]2(C(=O)NCCN3CCOCC3)CC(=O)N(Cc3ccccc3C(F)(F)F)[C@@H]2c2ccc(CO)cc2I)cc1 , system Torsin-1A (Homo sapiens), measured composite z-score is -0.38

###

Measurement description: small-molecule microarray binders of probe aShh, primary screen, biochemical, biotinylated probe, 635/667 nm fluorescence (AID 1114);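 further: probe is biotin-labelled aShh protein from a stem cell growth factor screen; measures binding of labelled protein to compounds printed on the slide; score merges feature fluorescence at 667 nm with signal-to-noise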
Settings: higher = more signal
Property label: composite z-score

The molecule listed as CN(C)CCCCNC(=O)[C@H]1C[C@H]2C(=O)N[C@@H](CCCCN(C)C)C(=O)N2[C@H]1c1cccc(OCCO)c1 shows composite z-score equal to -0.203

The molecule listed as COc1c(C)cc(-c2cc3c(c(Cc4ccccc4)n2)[Si](C(C)C)(C(C)C)OC3)cc1C shows composite z-score equal to -0.123

The molecule listed as [N-]=[N+]=Nc1ccccc1[C@@H]1OC(c2ccc(OCCCO)cc2)=N[C@]1(CCS(=O)(=O)c1ccccc1)C(=O)NCCN1CCOCC1 shows composite z-score equal to 0.337

The molecule listed as O=C1c2ccccc2[C@](Cc2ccccc2I)(C(=O)NCc2ccccc2)[C@H](c2ccc(CO)cc2)N1C1CCCCC1 shows composite z-score equal to 0.217

###

Measurement description: PSAC antagonists in infected red cells, primary screen, cell-based, P. falciparum Indochina, OD700, 2 h (AID 1155);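 further: lysis reports solute entry through the parasite surface anion channel PSAC; channel blockers reduce lysis of infected cells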
Settings: P. falciparum Indochina infected erythrocytes, osmotic lysis OD700; higher = more signal, called active from +8 up or from −8 down
Exercise: state measured z-score for each of the compounds provided.
Lab note: jot down the number only; don't add units.

The compound listed as CC(CO)N1C(=O)[C@@H]2C3C(=O)OCCC/C=C\[C@H]3OC23C=CCN(Cn2nnc4ccccc42)C(=O)[C@@H]13 (stereo partly drawn) shows z-score equal to 0.132

The compound listed as CC=CC(O)C1C=CC2C(=O)N(C)C(=O)C2N1N1CCCCC1 (stereo not drawn) shows z-score equal to 1.18

The compound listed as CC(C)N1CC=CC23O[C@@H]4C=CCOC(=O)[C@@H]4[C@H]2C(=O)N(C(C)CO)[C@@H]3C1=O (stereo partly drawn) shows z-score equal to 0.0397

The compound listed as COC(=O)C1(Cc2ccccc2)C=C2C(=C(C(C)C)C(=O)C2C)CN1 (stereo not drawn) shows z-score equal to 0.326

The compound listed as CC(=O)n1cc(C(O)C2C=CC3C(=O)N(Cc4ccccc4)C(=O)C3N2n2cnnc2)c2ccccc21 (stereo not drawn) shows z-score equal to 2.31

The compound listed as COC(=O)C(CC#Cc1ccc2c(c1)[C@]1(C(=O)N2)[C@H](C(=O)O)[C@H]2C(=O)O[C@H](c3ccccc3)[C@H](c3ccccc3)N2[C@@H]1c1ccccc1OCCO)C(=O)OC shows z-score equal to 0.487

The compound listed as COc1ccccc1CN1C(=O)c2ccccc2[C@@H](C(=O)NC(C)C)[C@@H]1c1ccc(CO)cc1 shows z-score equal to 0.525

The compound listed as COc1ccc([Si](C)(C)[C@H]2[C@H](CC(=O)N3Cc4ccccc4C[C@H]3CO)O[C@@]3(C(=O)N(Cc4cccc(N5CCCCC5=O)c4)c4ccccc43)[C@@H]2C)cc1 shows z-score equal to 0.966

The compound listed as C=CC[C@@]1(C(=O)O)N=C(c2ccc(OCCCO)cc2)O[C@@H]1c1ccccc1 shows z-score equal to 0.526

The compound listed as [N-]=[N+]=NCc1ccccc1C[C@@]1(C(N)=O)N=C(c2ccc(OCCCO)cc2)O[C@@H]1c1ccccc1CN=[N+]=[N-] shows z-score equal to 10.1

The compound listed as COC(=O)[C@@]1(Cc2ccc(F)cc2)[C@H]2c3cc(C(=O)N4CCCC4)n(CCc4c[nH]c5ccc(OC)cc45)c3C[C@H]2CN1C(=O)c1ccccc1 shows z-score equal to -0.165

The compound listed as CCOC(=O)C[C@H]1[C@H](OC(=O)c2ccccc2-c2ccccc2)[C@@H](NC(=O)c2ccc3ccccc3n2)c2cc(OCCCO)ccc2N1C(=O)c1ccc2ccccc2n1 shows z-score equal to -0.774

The compound listed as COc1ccccc1CN1C(=O)c2ccccc2[C@](Cc2ccccc2I)(C(=O)NC(C)C)[C@@H]1c1ccc(CO)cc1 shows z-score equal to 0.644

The compound listed as [N-]=[N+]=NCc1ccccc1C[C@@]1(C(=O)NCCN2CCOCC2)N=C(c2ccc(OCCCO)cc2)O[C@@H]1c1ccccc1N=[N+]=[N-] shows z-score equal to 27.4

The compound listed as COCCOC(=O)N1C(=O)[C@@]2(c3cc(C#Cc4ccc(OC)cc4)ccc31)[C@H](C(=O)NC[C@H](O)c1ccccc1)[C@H]1C(=O)O[C@H](c3ccccc3)[C@H](c3ccccc3)N1[C@@H]2c1ccc(O)cc1 shows z-score equal to 0.702

The compound listed as C[C@H]1C2=C3C(CC[C@H]4C(OCc5ccc(F)cc5C(F)(F)F)OC[C@](C)([C@@H]34)N(C(=O)OC(C)(C)C)C2)C2COC(=O)OCC21 (stereo partly drawn) shows z-score equal to 0.368

The compound listed as O=C1c2ccccc2[C@@]2(Cc3ccccc3N(C3CC3)C2=O)[C@H](c2ccc(CO)cc2)N1C1CCCCC1 shows z-score equal to -0.0557

The compound listed as C=CCOC(=O)[C@@H]1[C@H]2C(=O)O[C@H](c3ccccc3)[C@H](c3ccccc3)N2[C@H](c2ccc(OCCOC(=O)[C@H]3C[C@H]4C(=O)N[C@@H](CCCC[N+](C)(C)C)C(=O)N4[C@H]3c3ccc(O)cc3)cc2)[C@@]12C(=O)Nc1ccc(I)cc12 shows z-score equal to 1.57

The compound listed as CC(C)C(=C=CC[C@@H](O)c1ccccc1OCCO)C[C@@H](O)COCc1ccccc1 shows z-score equal to 2.19

The compound listed as O=C1C2C=CC(C(O)c3cc(C(F)(F)F)cc(C(F)(F)F)c3)N(Nc3ccc([N+](=O)[O-])cc3)C2C(=O)N1c1ccccc1 (stereo not drawn) shows z-score equal to 2.01

The compound listed as CCCCN1CC=CC23O[C@@H]4C=CCOC(=O)[C@@H]4[C@H]2C(=O)N(CCCO)[C@@H]3C1=O (stereo partly drawn) shows z-score equal to -0.921

The compound listed as COc1ccc(CCNC(=O)[C@@]2(Sc3ccc(C)cc3)CC(=O)N(Cc3cc(C(F)(F)F)cc(C(F)(F)F)c3)[C@@H]2c2ccc(CO)cc2I)cc1 shows z-score equal to 1.25

The compound listed as C=CCN1C(=O)[C@@]2(O[C@@H](CCn3cc([C@H](O)c4ccccc4)nn3)[C@H]([Si](C)(C)c3ccc(OC)cc3)[C@H]2C)c2ccccc21 shows z-score equal to 1.93

The compound listed as C=C(COC)/C(=C/C[C@@H](OC(=O)c1ccncc1)c1ccc(CO)o1)c1cnc2ccccc2c1 shows z-score equal to 1.24

The compound listed as O=C1NC(=O)C2C1C=CC(C(O)c1c(F)cccc1Cl)N2Nc1ccccn1 (stereo not drawn) shows z-score equal to 0.653

The compound listed as CC(C)(C)OC(=O)CC[C@@]1(C(=O)O)N=C(c2ccc(OCCCO)cc2)O[C@@H]1c1ccccc1 shows z-score equal to 0.0947

The compound listed as COc1cc(CO)cc(I)c1O[C@H]1C=C(C(=O)NCCO)C[C@@H](N(CC2CCCCC2)C(=O)c2ccc(C(F)(F)F)cc2)[C@@H]1O shows z-score equal to 0.447

The compound listed as [N-]=[N+]=Nc1ccccc1C[C@]1(C(=O)NCc2ccccc2)N=C(c2ccc(OCCCO)cc2)O[C@H]1c1ccccc1 shows z-score equal to 3.08
